Where these numbers come from: PubChem BioAssay (NCI)

- Procedure Summary: NCI Yeast Anticancer Drug Screen. Data for the sgs1 mgt1 strain (AID 161);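 note: 0% = growth of cultures given vehicle only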
- Assay Conditions: S. cerevisiae sgs1 mgt1 strain, at 50.0 µM, active compounds read high
- Method: Growth inhibition of yeast strains with defined genetic alterations is measured as a screen for potential anti-cancer activity. Selected strains with alterations in DNA damage repair or cell cycle control were exposed to compounds and growth inhibition was measured relative to vehicle treated controls. The strain used in this assay is sgs1 mgt1
The panel holds about 79,000 compounds, 15% with a hit somewhere; the sample as a whole holds those more often.
Quantity Measured: growth inhibition (%)
Numbers only, in %.

For the 3 compounds below, give their growth inhibition values.
1. Cc1cc(NC(=O)COCC(=O)O)no1
2. O=C(NNC1=NCCN1)c1ccco1
3. CO[C@H]1C[C@H]2[C@@H]3CCC4=CC(=O)CC[C@]4(C)[C@H]3CC[C@]2(C)[C@@]1(O)C(=O)CO

1. 5.65
2. -9.8
3. -17

---

Answer each item with its documented growth inhibition.
- Procedure Summary: NCI Yeast Anticancer Drug Screen. Data for the mlh1 rad18 strain (AID 175)
- Assay Conditions: S. cerevisiae mlh1 rad18 strain growth inhibition; at 50.0 µM; active compounds read high
The panel holds about 79,000 compounds, 15% with a hit somewhere; the sample as a whole holds those more often. Where a SMILES comes first, the peptide text is derived from it. The star is where a group is joined. Cbz = O=C(OCc1ccccc1)*; Boc = CC(C)(C)OC(=O)*; OSu = O=C1CCC(=O)N1O*; Bn = c1ccc(C*)cc1
Give bare numbers, in %.

So what does the record say about growth inhibition for O=C(Nc1ccc([N+](=O)[O-])cc1)Oc1c(Cl)cc(Cl)c(Cl)c1[N+](=O)[O-] ?
60.4

Then what about the molecule CC(=O)Oc1ccc2c(c1)CCC1C2CCC2(C)CC(OC(C)=O)CC12 (centres undefined) ?
-21.8

Then what about the molecule CCCCC1(CN(C)C)C(=O)N(C)C(=O)N(C2CCCCC2)C1=O (centres undefined) ?
9.6

Then what about the molecule NC(Cc1cc(I)c(O)c(I)c1)C(=O)O (centres undefined) ?
1.35

Then what about the molecule BrCCOC(OCCBr)(c1ccccc1)c1ccccc1 ?
6.3

For the 4 molecules below, give their growth inhibition values.
1. CCOc1ccc(-c2cc(-c3ccc(OCC)cc3)cc(-c3ccc(OCC)cc3)c2)cc1
2. CC(C)(C)OC(=O)NC(Cc1ccc(OCc2ccccc2)cc1)C(=O)NC(CCCCNC(=O)OCc1ccccc1)C(=O)NC(CCCCNC(=O)OCc1ccccc1)C(=O)ON1C(=O)CCC1=O (centres undefined) (Boc-Tyr(Bn)-Lys(Cbz)-Lys(Cbz)-OSu; configuration not given here)
3. CC(C)CC(NS(=O)(=O)Cc1ccccc1)C(=O)NN (centres undefined)
4. CCOC(=O)/C(C#N)=C/c1ccccc1F

[-2.85, 16.5, -22.1, 40.8]

For the 2 molecules below, give their growth inhibition values.
1. c1ccc2c(C3=NCCO3)cccc2c1
2. [N-]=[N+]=CC(=O)C1OC1c1ccc(Br)cc1 (centres undefined)

11.8
33.1

For the 8 molecules below, give their growth inhibition values.
1. C=CCOC(=O)C(C)OC(=O)/C(Cl)=C/C(=O)O (centres undefined)
2. O=C(O)CC1CCCc2ccccc2C1CC(=O)O (centres undefined)
3. C(=NCCN=Cc1ccccc1)c1ccccc1
4. CC(Cl)(CCl)C(=O)NCNC(=O)C(C)(Cl)CCl (centres undefined)
5. Cc1c(C2(c3cc(C(C)C)c(O)c(CN(CC(=O)O)CC(=O)O)c3C)OS(=O)(=O)c3ccccc32)cc(C(C)C)c(O)c1CN(CC(=O)O)CC(=O)O
6. CC(=NCCN(CCN=C(C)c1c(O)cc(C)oc1=O)CCN=C(C)c1c(O)cc(C)oc1=O)c1c(O)cc(C)oc1=O
7. Cc1cc(OCCN(C)C)cc(C)c1Cl
8. O=[N+]([O-])c1ccc(N/N=C(/c2ccc(Cl)cc2)c2ccccc2Cl)c([N+](=O)[O-])c1

1. 6.15
2. 7.4
3. -8.9
4. 28.2
5. 4.95
6. 21.8
7. 8.8
8. 21.4

---

Answer each item with its documented growth inhibition.
- Procedure Summary: NCI Yeast Anticancer Drug Screen. Data for the mlh1 rad18 strain (AID 175)
- Assay Conditions: S. cerevisiae mlh1 rad18 strain growth inhibition; at 50.0 µM; active compounds read high
About 79,000 compounds went through this panel and 15% of them were active in at least one assay; those are over-represented in the sample as a whole. The source made the active and inactive calls. No stated cut-off is given here; in the data, active means growth inhibition above about 70%; inactive means the rest. *1 amine or outer side, *2 acyl side, *3 side chain or, on linkers, in order; H or OH if unused. Where a SMILES comes first, the peptide text is derived from it. [ ]: non-standard residue; d: D form. X12 = NC(N)=NCC(O)CC(N[*:1])C(=O)[*:2]; Orn = NCCC[CH](N)C(=O)O

Known growth inhibition results, listed for orientation:
So what does the record say about growth inhibition for CC(O)C(NC(=O)C(CCCN)NC(=O)C(CC(O)CN=C(N)N)NC(=O)C(N)CCCN=C(N)N)C(=O)NC(CCCN)C(=O)NC(CC(O)CN=C(N)N)C(=O)NC(Cc1ccc(O)cc1)C(=O)O (centres undefined) (tested in a mixture with another compound) (H-R[X12][Orn]T[Orn][X12]Y-OH; configuration not given here) ?
38.1% (inactive)

Then what about the compound COc1cc(C(C#N)NNC(=O)c2ccccc2O)ccc1O (centres undefined) ?
38% (inactive)

Then what about the compound COC(=O)C1CC(=O)N(CCCl)C1 (centres undefined) ?
-10.8% (inactive)

Then what about the compound O=C(Cl)c1ccc2c(c1)C(=O)OC2=O ?
-10.4% (inactive)

Then what about the compound COc1ccc2c(c1)N1CCc3cc(OC)c(OC)cc3C1C2 (centres undefined) ?
34.4% (inactive)

Then what about the compound COc1ccccc1C(=O)N/N=C/c1ccccc1Cl ?
30.1% (inactive)

Then what about the compound COc1ccc2c(ccc[n+]2CC(=O)c2ccc(SC)cc2)c1 ?
0.75% (inactive)

Then what about the compound CCN(CC)CCCNc1ncc(C)c2[nH]c3ccncc3c12 ?
12.1% (inactive)

Please turn your attention to the following entry.
So what does the record say about growth inhibition for CC(C)CNC(=O)/C=C/c1ccc2c(c1)OCO2 ?
-15.1% (inactive)

---

Answer each item with its documented growth inhibition.
- Procedure Summary: NCI Yeast Anticancer Drug Screen. Data for the mlh1 rad18 strain (AID 175)
- Assay Conditions: S. cerevisiae mlh1 rad18 strain growth inhibition; at 50.0 µM; active compounds read high
About 79,000 compounds went through this panel and 15% of them were active in at least one assay; those are over-represented in the sample as a whole. Activity calls are given as the source filed them. No stated cut-off is given here; in the data, active means growth inhibition above about 70%; inactive means the rest. Where a SMILES comes first, the peptide text is derived from it. [ ]: non-standard residue; d: D form. The star is where a group is joined. ξ: configuration not given here. ξF = NC(Cc1ccccc1)C(=O)O; Cbz = O=C(OCc1ccccc1)*

Known growth inhibition results, listed for orientation:
So what does the record say about growth inhibition for CC(=O)Nc1ccc(O)c(CN2CCN(c3ccccc3)CC2)c1 ?
20.3% (inactive)

Then what about the molecule O=Cc1cc2c(cc1Cl)OCO2 ?
-2% (inactive)

Then what about the molecule CCOC(=O)CNC(=O)C(Cc1ccccc1)NC(=O)OCc1ccccc1 (stereo not given) (Cbz-[ξF]-Gly-OEt) ?
-9% (inactive)

Then what about the molecule CCCCCC1(C)OCC(c2ccccc2)O1 (stereo not given) ?
21.1% (inactive)

Then what about the molecule NNC(=O)/C(=C/c1ccc(Cl)cc1Cl)NC(=O)c1ccccc1 ?
54.5% (inactive)

For the 6 molecules below, give their growth inhibition values.
1. CCCCCCCCCCCCCCCC[N+](C)(C)CCN
2. O=C1[C@@H](c2ccc(Cl)cc2)[C@H]2CC=C[C@H]2N1O
3. CNc1ccccc1C(=O)N/N=C\c1ccc(Cl)cc1Cl
4. CC1(C)OC2(CC1C1(C)C=CC(=O)O1)CC1C(O)(CCC34CC13C(=O)OC4c1ccoc1)O2 (stereo not given)
5. CCN(C(=S)Nc1cccc(C(F)(F)F)c1)c1ccccc1
6. CC(=O)N1C(OC(C)C)CC(C)N1c1ccccc1 (stereo not given)

1. 59.7% (inactive)
2. -2.25% (inactive)
3. -5.15% (inactive)
4. 10.2% (inactive)
5. 22.6% (inactive)
6. -38.3% (inactive)

For the 6 molecules below, give their growth inhibition values.
1. O=c1[nH]cnc2nn(C3OC(CO)C(O)C3O)nc12 (stereo not given)
2. Cc1ccc2nc(C(O)C(O)C(O)CO)[nH]c2c1 (stereo not given)
3. C1CSC[C@H]2COC[C@@H](CSCCS1)S2
4. N#CC12CCC(O)C(CC1)C2=O (stereo not given)
5. COC(=O)c1ccc(Cl)cc1
6. CCOC(=O)C1=CC(C)(C(=O)OCC)Nc2c(nc(SC)n(C)c2=O)N1 (stereo not given)

["23.6% (inactive)", "-12.7% (inactive)", "-7.9% (inactive)", "20.6% (inactive)", "2.45% (inactive)", "14.2% (inactive)"]

For the 7 molecules below, give their growth inhibition values.
1. Cc1[nH]c(=O)n2c(C)nnc2c1C(=O)Nc1cc(Cl)cc(Cl)c1
2. CC(C)(O)C12CC3CC(CC(C3)C1)C2
3. CN1C(=O)OC2C3NC(=O)OC3C(O)C(O)C21 (stereo not given)
4. N#Cc1[nH]c(=S)[nH]c1N
5. Cc1cccc(NC(=O)CCCCCCCCC(=O)Nc2cccc(C)c2C)c1C
6. O/N=C/C(=Nc1ccc2ccccc2c1)NO
7. Nc1ccccc1C(=O)CCc1c[nH]c2ccccc12

1. 31.2% (inactive)
2. 0.2% (inactive)
3. -8.95% (inactive)
4. -40.8% (inactive)
5. 12.2% (inactive)
6. 23.5% (inactive)
7. 12.3% (inactive)

So what does the record say about growth inhibition for c1ccc2sc(SCSc3nc4ccccc4s3)nc2c1 ?
-30.9% (inactive)
